meta.source: patent US12247058

Record form. Attribute: pERK EC50. Fill in for each entry.
Target: T1, human β-klotho with a C-terminal FLAG tag, stably expressed in a clonal HEK-293 cell line (human, UniProt Q86Z14 1-1044)
T1 sequence: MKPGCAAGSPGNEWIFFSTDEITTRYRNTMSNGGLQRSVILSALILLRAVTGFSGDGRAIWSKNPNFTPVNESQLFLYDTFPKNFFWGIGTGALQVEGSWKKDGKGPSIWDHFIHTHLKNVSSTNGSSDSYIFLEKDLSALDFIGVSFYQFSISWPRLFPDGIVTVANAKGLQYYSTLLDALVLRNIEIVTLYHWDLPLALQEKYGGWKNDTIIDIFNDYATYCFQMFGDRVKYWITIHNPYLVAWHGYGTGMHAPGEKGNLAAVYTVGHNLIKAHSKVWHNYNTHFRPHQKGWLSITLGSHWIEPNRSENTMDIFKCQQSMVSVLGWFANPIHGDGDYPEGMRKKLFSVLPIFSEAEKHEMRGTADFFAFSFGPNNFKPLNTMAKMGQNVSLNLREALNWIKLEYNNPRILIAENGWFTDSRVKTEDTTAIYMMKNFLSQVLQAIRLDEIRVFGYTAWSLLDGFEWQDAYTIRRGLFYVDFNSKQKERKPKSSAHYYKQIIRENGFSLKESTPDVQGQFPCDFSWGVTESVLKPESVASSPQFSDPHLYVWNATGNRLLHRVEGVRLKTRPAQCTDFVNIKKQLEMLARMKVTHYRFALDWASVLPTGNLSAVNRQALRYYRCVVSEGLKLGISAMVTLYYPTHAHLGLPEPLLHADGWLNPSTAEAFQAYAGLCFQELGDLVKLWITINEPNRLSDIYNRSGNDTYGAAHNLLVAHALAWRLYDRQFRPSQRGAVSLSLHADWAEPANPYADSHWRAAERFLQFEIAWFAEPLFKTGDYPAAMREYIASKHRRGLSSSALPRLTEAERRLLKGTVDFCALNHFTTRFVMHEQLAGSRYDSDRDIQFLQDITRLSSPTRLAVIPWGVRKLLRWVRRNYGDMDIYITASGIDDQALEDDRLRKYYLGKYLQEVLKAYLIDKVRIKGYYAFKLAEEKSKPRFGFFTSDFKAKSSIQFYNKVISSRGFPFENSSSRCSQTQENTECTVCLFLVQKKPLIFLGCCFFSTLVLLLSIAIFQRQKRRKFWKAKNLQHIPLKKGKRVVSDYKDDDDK
Assay: cell-based or functional assay
Give bare numbers, in nM.

For each of the binders below, state pERK EC50.
1. Compound 20 (ligand) MHPIPDSSPLLQFGGQVRQRYLYTDDAQQTEAHLEIREDGTVGGAADQSPESLLQLKALKPGVIQILGVKTSRFLCQRPDGALYGSLHFDPEACSFRELLLEDGYNVYQSEAHGLPLHLGGHRDPAPRGPARFLPLPGLPPAPPEPPGILAPQPPDVGSSDPLSMVEPSQGRSPSYAS
2. Compound 11 (ligand) MHPIPDSSPLLQFGGQVRQRYLYTDDAQQTEAHLEIREDGTVGGAADQSPESLLQLKALKPGVIQILGVKTSRFLCQRPDGALYGSLHFDPEACSFRELLLEDGYNVYQSEAHGLPLHLGSGHRDPAPRGPARFLPLPGLPPAPPEPPGILAPQPPDVGSSDPLSMVEPSQGRSPSYAS
3. Compound 7 (ligand) MHPIPDSSPLLQFGGQVRQRYLYTDDAQQTEAHLEIREDGTVGGAADQSPESLLQLKALKPGVIQILGVKTSRFLCQRPDGALYGSLHFDPEACSFRELLLEDGYNVYQSEAHGLPLHLPGDKSPHRDPAPRGPARFLPLPGLPPAPPEPPGILAPQPPDVGSSDPLSMVEPSQGRSPSYAS

[3.9, 28.2, 28.4]
